The values you see were collected from ChEMBL document CHEMBL1773015.

# Tested on: Enterobacter cloacae
# Procedure Summary: Binding affinity to Enterobacter cloacae NCTC 11936 nitroreductase assessed as fluorescent colonies after 24 hrs by fluorescence staining
Activity calls are given as the source filed them. No cut-off for these calls is given here.
API: response.call in Yes for active, No for inactive

Please review the entries below; each comes with its answer.
COc1cc(-c2nc3ccccc3s2)c([N+](=O)[O-])cc1OC	Yes
O=[N+]([O-])c1ccc(Cl)cc1-c1nc2ccccc2s1	Yes
Cn1c(-c2cc(Cl)ccc2[N+](=O)[O-])nc2ccccc21	Yes
O=[N+]([O-])c1ccccc1-c1nc2ccccc2o1	Yes
COc1cc(-c2nc3ccccc3o2)c([N+](=O)[O-])cc1OC	Yes

### Prompt For O=[N+]([O-])c1ccc(Cl)cc1-c1nc2ccccc2o1 , which call appears in the assay record?
### Response Yes

### Prompt For O=[N+]([O-])c1ccc(F)cc1-c1nc2ccccc2o1 , which call appears in the assay record?
### Response Yes

### Prompt For O=[N+]([O-])c1ccc(F)cc1-c1nc2ccccc2s1 , which call appears in the assay record?
### Response Yes

### Prompt For O=[N+]([O-])c1ccccc1-c1nc2ccccc2s1 , which call appears in the assay record?
### Response Yes

### Prompt For Cn1c(-c2ccccc2[N+](=O)[O-])nc2ccccc21 , which call appears in the assay record?
### Response No

###

# Test system: Staphylococcus epidermidis
# Procedure Summary: Binding affinity to Staphylococcus epidermidis NCTC 11047 nitroreductase assessed as fluorescent colonies after 24 hrs by fluorescence staining
The source made the active and inactive calls. The calls are words filed in the database; no cut-off is given here.
API: response.call in active, inactive

Please review the entries below; each comes with its answer.
Cn1c(-c2ccccc2[N+](=O)[O-])nc2ccccc21	inactive
COc1cc(-c2nc3ccccc3s2)c([N+](=O)[O-])cc1OC	active
O=[N+]([O-])c1ccc(F)cc1-c1nc2ccccc2o1	inactive
COc1cc(-c2nc3ccccc3o2)c([N+](=O)[O-])cc1OC	inactive
O=[N+]([O-])c1ccc(Cl)cc1-c1nc2ccccc2o1	inactive
Cn1c(-c2cc(Cl)ccc2[N+](=O)[O-])nc2ccccc21	inactive

### Prompt For O=[N+]([O-])c1ccc(Cl)cc1-c1nc2ccccc2s1 , which call appears in the assay record?
### Response inactive

### Prompt For O=[N+]([O-])c1ccc(F)cc1-c1nc2ccccc2s1 , which call appears in the assay record?
### Response inactive

### Prompt For O=[N+]([O-])c1ccccc1-c1nc2ccccc2o1 , which call appears in the assay record?
### Response active

### Prompt For O=[N+]([O-])c1ccccc1-c1nc2ccccc2s1 , which call appears in the assay record?
### Response active

###

# Test system: Enterobacter cloacae
# Procedure Summary: Binding affinity to Enterobacter cloacae NCTC 11936 aminopeptidase assessed as fluorescent colonies after 24 hrs by fluorescence staining
The source made the active and inactive calls. The rule behind the calls is not given here.
API: response.call in active, inactive

Please review the entries below; each comes with its answer.
C[C@H](N)C(=O)Nc1ccccc1-c1nc2ccccc2s1	active
C[C@H](N)C(=O)Nc1ccccc1-c1nc2ccccc2o1	active
NCCC(=O)Nc1ccccc1-c1nc2ccccc2s1	inactive

Would you kindly look at the next entry?
### Prompt For NCCC(=O)Nc1ccccc1-c1nc2ccccc2o1 , which call appears in the assay record?
### Response active

###

# Tested on: Enterococcus faecium
# Procedure Summary: Binding affinity to Enterococcus faecium NCTC 7171 nitroreductase assessed as fluorescent colonies after 24 hrs by fluorescence staining
Activity calls are given as the source filed them. No cut-off for these calls is given here.
Attribute Measured: Activity

Reference set, count: 4
Cn1c(-c2ccccc2[N+](=O)[O-])nc2ccccc21	inactive
O=[N+]([O-])c1ccc(F)cc1-c1nc2ccccc2s1	inactive
O=[N+]([O-])c1ccc(Cl)cc1-c1nc2ccccc2o1	inactive
Cn1c(-c2cc(Cl)ccc2[N+](=O)[O-])nc2ccccc21	inactive

### Prompt Given the compound O=[N+]([O-])c1ccc(F)cc1-c1nc2ccccc2o1 , what is its reported Activity?
### Response inactive

### Prompt Given the compound O=[N+]([O-])c1ccc(Cl)cc1-c1nc2ccccc2s1 , what is its reported Activity?
### Response inactive
